# Test system: OVCAR-3 ovarian
# assay: NCI-60 one-dose screen, 48 h
# condition context: 10 µM unless noted
Compounds without any hit were thinned out: in the full panel of roughly 83,000, 20% have a hit. The source made the active and inactive calls. Rule for the calls: active = growth percent below 10; inactive = the rest.
Could you please pick one outcome from this set? active, inactive

Before answering, review these 4 worked examples.
CC(=O)N1N=C2N(Cc3ccccc3)C(=O)c3c(sc4c3CCCC4)N2C1c1cn(-c2ccccc2)nc1-c1ccc(Cl)cc1 (centres undefined)    inactive
Nc1ncnc2c1c(-c1ccc(Oc3ccccc3)cc1)nn2C[C@H]1SSC[C@@H]1O    active
O=C(CSc1nnc(-c2ccc(Cl)cc2)o1)Nc1ccc(C(=O)/C=C/c2ccccc2)cc1    inactive
CN(CCNCc1ccccn1)CCNCc1ccccn1    active

Exercise: So what was the verdict on O=C(Nc1cccc(-n2ccc3c(NC(=O)c4ccccc4)ncnc32)c1)Nc1ccc(Cl)c(C(F)(F)F)c1 in this test?
Solution: inactive

Exercise: Hi, sorry to bother you, what did the test record for COc1ccccc1P(c1ccccc1OC)c1ccccc1OC ?
Solution: inactive

Exercise: Field: outcome | Entry: COc1ccc(/C=C2/C(=O)Nc3cc(Cl)c(-c4csc(N)n4)cc32)cc1
Solution: inactive

Exercise: Query: recorded result category for N#Cc1c(N)nc(Cl)c(C#N)c1C(=O)c1ccccc1 in this test
Solution: inactive

----------
# System: SNB-19 CNS
# assay: NCI-60 one-dose screen, 48 h (100 = growth as untreated, 0 = no growth, -100 = all killed)
# condition context: 10 µM unless noted
This is part of a sample that, as a whole, favours compounds with a hit. Of some 83,000 tested, about 20% had one in any assay.
Label key: met means growth under 80%; not met means growth of 80% or more.

Example entries begin here.
COc1ccc(CCNC=O)cc1OC    not met
Cc1ccc(-c2cn3cc([N+](=O)[O-])ccc3n2)cc1    not met
CCOc1ccc(-n2c(-c3cc(OC)c(OC)c(OC)c3)nnc2-c2ccc(OC)cc2N)cc1    met
C=C1C(=O)O[C@H]2[C@H]1CC/C(COC(=O)c1ccccc1)=C\CC[C@@]1(C)O[C@@H]21    met
Nn1c(SCC(=O)Nc2cc(Cl)c(Cl)cc2Cl)nnc1-c1cc(F)c(Cl)cc1Cl    not met
CC(=S)Nc1ccccc1    not met
COc1ccccc1S(=O)(=O)Nc1ccc2c3c(cc(-c4ccoc4)nc13)C(=O)N2C    met
COc1cc(/C=C/C(=O)c2ccc(Oc3ncnc4ccccc34)cc2)cc(OC)c1OC    met
COc1ccc(-c2nn(-c3ccc(NC(=O)Nc4ccc(Cl)c(Cl)c4)cc3)cc2-c2ccncc2)cc1Cl    met

Now let's try a different one.
Exercise: Answer whether the compound CC1(C)N=C(N)N=C(N)N1c1ccc(OCC(=O)Nc2ccccc2)c(Cl)c1 has growth strictly less than 80%
Solution: met

----------
# System: SW-620 colon
# assay: NCI-60 one-dose screen, 48 h (100 = growth as untreated, 0 = no growth, -100 = all killed)
# condition context: 10 µM unless noted
# Protocol: Growth inhibition of the SW-620 human tumor cell line is measured as a screen for anti-cancer activity. Cells are grown in 96 well plates and exposed to the test compound for 48 hours. Compounds are tested at a single concentration, which is 10^-5 M for most compounds. The reported endpoint is percent growth (GI% or GIPRCNT), where numbers from 0 - 100% represent growth inhibition, and numbers from -100% - 0 represent cell death. For example, a value of 40 represents 60% growth inhibition. […]
This is part of a sample that, as a whole, favours compounds with a hit. Of some 83,000 tested, about 20% had one in any assay.
assay readout: growth (%)
Please respond with the number in % and leave the unit unwritten.

C/C(=N/O)c1ccc(NC(=O)Cn2nc(-c3ccc(Cl)cc3)nc2N)cc1    104
CC1CCC(C(C)C)C(NN)C1 (stereo not given)    104
COc1ccc2c(c1)OC(N)=C(C#N)C2c1ccc(F)cc1 (stereo not given)    18.6

Exercise: Identify measured growth associated with Nc1ncnc2c1c(-c1ccc(Oc3ccccc3)cc1)nn2C[C@H]1SSC[C@@H]1O
Solution: 51.1

Exercise: Give a short answer stating reported growth for CS(=O)(=O)Nc1cccc(-c2ccc3ncnc(Nc4ccc(F)c(Cl)c4)c3c2)c1 .
Solution: 7.1

Exercise: Supply growth value. Item: CCc1cccc(C)c1NC(=O)c1sc2nc3c(cc2c1N)CCCCC3
Solution: 23.8

Exercise: Dear colleague, please send me the reported growth for CCOC(=O)C1CN(Cc2ccccc2)C(=O)C1=O (stereo not given) when you can.
Solution: 95

Exercise: Please give measured growth of the following entry: CC1=C2C(=C[C@@](C)(CO)[C@@H]2OC(=O)N(C)CCN(C)C(=O)OC(C)(C)C)C(=O)[C@](C)(O)C12CC2
Solution: 71.3

Exercise: Give reported growth value for Cc1cn(-c2cc(C(=O)Nc3cccc(-n4ccc5c(NC(=O)c6ccccc6)nccc54)c3)cc(C(F)(F)F)c2)cn1
Solution: 13.4

Exercise: Fill in growth for record Nn1c(CN2CCN(c3cc4c(cc3F)c(=O)c(C(=O)O)cn4C3CC3)CC2)n[nH]c1=S
Solution: 105

Exercise: # return recorded growth for input CNC(=O)NN
Solution: 93.7

Exercise: Look up and state reported growth for Nc1ccc(S(=O)(=O)Nc2cc(I)cc(I)c2)cc1
Solution: 119

Exercise: Supply measured growth of CS(=O)(=O)Nc1cccc(-c2ccc3ncnc(Nc4cncc(Cl)c4)c3c2)c1 in your reply.
Solution: 33.2

Exercise: State its growth: CCCCCC/C=N/Nc1ccc([N+](=O)[O-])cn1
Solution: 102

Exercise: Output growth of O=C(O)c1ccccc1C(=O)c1ccc(I)cc1
Solution: 97.4

----------
# Test system: NCI-H460 lung
# assay: NCI-60 one-dose screen, 48 h (100 = growth as untreated, 0 = no growth, -100 = all killed)
# condition context: 10 µM unless noted
This is part of a sample that, as a whole, favours compounds with a hit. Of some 83,000 tested, about 20% had one in any assay. Calls of active or inactive are those of the source. Rule for the calls: active = growth percent below 10; inactive = the rest.
assay readout: growth

Cc1c(F)cccc1NC(=O)c1sc2nc3c(cc2c1N)CCCCC3    56.7% (inactive)

Exercise: Provide only the value of recorded growth for N#Cc1c(N)nc2c(c1N)C(c1ccc(Cl)cc1)C1=C(CCCC1=O)N2c1sc2c(c1C#N)CCCC2 (stereo not drawn)
Solution: 97.3% (inactive)

Exercise: State its growth for this compound: Cc1cc(N2CCOCC2)nc(N(CCNc2ccnc3cc(Cl)ccc23)Cc2ccco2)n1
Solution: 47.3% (inactive)

----------
# Test system: HOP-62 NSCLC
# assay: NCI-60 one-dose screen, 48 h (100 = growth as untreated, 0 = no growth, -100 = all killed)
# condition context: 10 µM unless noted
This is part of a sample that, as a whole, favours compounds with a hit. Of some 83,000 tested, about 20% had one in any assay.
Would you mind classing the entries by growth? Ranges: bottom bin = under 60%, middle bin = from 60% up to 90%, top bin = 90% and over

COc1ccc(OCC(O)CN2CCN(c3ccc(Cl)cc3)CC2)cc1 (configuration not stated)    top bin

Exercise: Band assignment needed for CN(C)c1ccc(/C=N/n2c(-c3cc(F)c(Cl)cc3Cl)nn(CN3CCOCC3)c2=S)cc1 please.
Solution: middle bin

Exercise: Record CC(=O)Cc1cccnc1 — which class?
Solution: top bin

Exercise: Kindly state the category for this molecule: Clc1ccc(OCc2nc(-c3ccccc3)n[nH]2)c(Cl)c1
Solution: middle bin

Exercise: Kindly state the category for this molecule: Cc1ccc2[nH]c3nc4cccnc4c(C)c3c2c1
Solution: middle bin

Exercise: Lab note: which band did O=c1c(-c2ccc3c(c2)OCO3)coc2c(CO)c(O)ccc12 land in?
Solution: bottom bin

Exercise: # bin lookup: classify c1nc(SC2=NCCN2)c2[nH]cnc2n1 by its growth
Solution: bottom bin

Exercise: Any idea which band S=c1n(CNc2ccc(Cl)nn2)nc(-c2cc(Cl)cc(Cl)c2Cl)n1/N=C/c1ccc(Cl)cc1 is in?
Solution: middle bin

Exercise: Form field 'band' for C=CC(C)(O)CCC1C(=C)CCC2C(C)(C)CCCC12C (configuration not stated)
Solution: top bin

Exercise: Place this molecule in its band: COc1ccc(/C=C2/C(=O)Nc3cc(Cl)c(-c4csc(N)n4)cc32)cc1
Solution: bottom bin

Exercise: Lab log: Cc1c(Cl)ccc2c(C(=O)Cl)cc(-c3ccccc3)nc12 — assign growth category
Solution: middle bin

Exercise: // return the class label for Nc1ncnc2c1c(-c1ccc(Oc3ccccc3)cc1)nn2C[C@H]1SSC[C@@H]1O
Solution: bottom bin

Exercise: Would you mind sorting O=S(=O)(CCN1CCOCC1)Nc1cncc(-c2ccc3ncnc(Nc4ccc(F)c(Cl)c4)c3c2)c1 into the appropriate category?
Solution: bottom bin

Exercise: Band for COc1ccc(-c2cc3ccc(N(C)C)cc3nc2N)c(F)c1 ?
Solution: bottom bin

Exercise: # bin label for CN(C)c1ccc(/C=N/N=C(N)N)cc1
Solution: middle bin

Exercise: Hey, which category is COc1cc(NC(C)CCCN2C(=O)c3ccccc3C2=O)c2ncccc2c1OC (configuration not stated) in, do you know?
Solution: middle bin

Exercise: GET /class?item= COc1ccc(-c2nnc(SCC(=O)N3CCN(c4cc5c(cc4F)c(=O)c(C(=O)O)cn5C4CC4)CC3)o2)cc1OC
Solution: middle bin

Exercise: Which bin, given its growth, does COc1cc(-c2nc(N)n(CC(=O)Nc3ccc(/C(C)=N\O)cc3)n2)cc(OC)c1OC occupy?
Solution: top bin

Exercise: Which class does O=C(Nc1ccc(-n2ccc3c(NC(=O)c4ccccc4)nccc32)cc1)c1ccc(Cl)c(C(F)(F)F)c1 fall in?
Solution: bottom bin
